Assay Name: microPET imaging of U87MG tumor xenografts in mice
Format: in vivo, nude mice
Assay Context: nude, mouse, tumor versus muscle (background), iv, total radioactivity
Measured Attribute: tissue to tissue ratio at 1 h

Query: What value of tissue to tissue ratio at 1 h has been recorded for this entry: N=C(N)NCCC[C@@H]1NC(=O)[C@H](CCCCNC(=O)CC[C@H](NC(=O)COCCOCCOCCNC(=O)[C@@H]2CSC(c3nc4ccc(OCCF)cc4s3)=N2)C(=O)NCCCC[C@@H]2NC(=O)[C@@H](Cc3ccc(O)cc3)NC(=O)[C@H](CC(=O)O)NC(=O)CNC(=O)[C@H](CCCNC(=N)N)NC2=O)NC(=O)[C@@H](Cc2ccc(O)cc2)NC(=O)[C@H](CC(=O)O)NC(=O)CNC1=O [[^18F]CBTRGD2]
Reply: 5.4
